- Test system: acute lung injury in mice induced by oleic acid
- TEST: acute lung injury test in mouse (oleic acid-induced, histological grading of lung pathology)
- Format: in vivo, KM mice
- ASSAY SETUP: number of mice (11 per group) at score 3 (Moderate); 40 mg/kg in terms of free base, intravenously once a day for 4 times; oleic acid 300 mg/kg i.v.
Counter-ions that a name gives are not always drawn.
MEASUREMENT TYPE: Lung tissue necrosis Level 3
Output: the number by itself.

// query Lung tissue necrosis Level 3 value for entry Nc1c(Br)cc(Br)cc1CN[C@@H]1[C@@H]2C[C@@H]3C[C@H]1C[C@@](O)(C3)C2 [Compound of Formula V, hydrochloride] 0

Entry under review: Cl.Nc1c(Br)cc(Br)cc1CNC1C2CC3CC1CC(O)(C3)C2 (racemic) . Reported Lung tissue necrosis Level 3? 0

I have this compound here, Nc1c(Br)cc(Br)cc1CN[C@@H]1[C@@H]2C[C@@H]3C[C@H]1C[C@@](O)(C3)C2 [Compound of Formula I] , and I need its recorded Lung tissue necrosis Level 3. 0

I have this compound here, Nc1c(Br)cc(Br)cc1CN[C@H]1CC[C@H](O)CC1 [Ambroxol hydrochloride] , and I need its recorded Lung tissue necrosis Level 3. 1

* * *

- System: acute lung injury in mice induced by oleic acid
- TEST: acute lung injury test in mouse (oleic acid-induced, histological grading of lung pathology)
- Type: in vivo, KM mice
- ASSAY SETUP: number of mice (11 per group) at score 1 (Occasional); 40 mg/kg in terms of free base, intravenously once a day for 4 times; oleic acid 300 mg/kg i.v.
Where a name gives a salt, the structure may show the parent alone.
MEASUREMENT TYPE: Lung tissue necrosis Level 1
Just the number.

Consider the compound shown here: Nc1c(Br)cc(Br)cc1CN[C@H]1CC[C@H](O)CC1 [Ambroxol hydrochloride] What is its recorded Lung tissue necrosis Level 1? 4

Which value of Lung tissue necrosis Level 1 has been reported for Nc1c(Br)cc(Br)cc1CN[C@@H]1[C@@H]2C[C@@H]3C[C@H]1C[C@@](O)(C3)C2 [Compound of Formula I] in the records? 0

Param item = Cl.Nc1c(Br)cc(Br)cc1CNC1C2CC3CC1CC(O)(C3)C2 (racemic) ; retrieve measured Lung tissue necrosis Level 1. 2

Entry under review: Nc1c(Br)cc(Br)cc1CN[C@@H]1[C@@H]2C[C@@H]3C[C@H]1C[C@@](O)(C3)C2 [Compound of Formula V, hydrochloride] . Reported Lung tissue necrosis Level 1? 0
